What concentration required to effectively neutralize (pVNT) was measured for each of the following?
# TARGET_ENTITY: BQ.1.1 spike protein (SARS-CoV-2 variant BQ.1.1, UniProt P0DTC2 14-1273)
# MEASUREMENT_PROTOCOL: cell-based or functional assay
One number for each entry, in ng/ml.

Look over these answered cases.
| BINDER | OBS_VALUE |
| --- | --- |
| Ab4 (G7.2) (antibody, V domains shown) VH: QVQLVQSGAEVKKPGSSVKVSCEASGGTFSTYAISWVRQAPGQGLEWMGRIIPIFGIANYAQKFQGRVTITADKSTSTAYMEVSSLRSEDTAVYYCATTFYDHSSTYRTHSMDVWGQGTTVTVSS VL: DIQMTQSPSSLSASVGDRVTITCRASQSISNYLNWYQQRPGKAPKLLIYAASGLQSGVPSRFSGSGSGTNFTLTISTLHPEDFATYYCQQTHSTPRAFGGGTKVEIK | 48.4 |
| Ab1 (B11.2) (antibody, V domains shown) VH: EVQLVESGGGLVQPGGSLRLSCAASEIIVSRNYMTWVRQAPGKGLEWLAVLYAGGSSFYADSVKGRFTISRDNSKNTLFLQMNSLRAEDTAVYYCARDLSLSGGFDYWGQGALVTVSS VL: DIQLTQSPSFLSASVGDRVTITCRASQGISNYLAWYQQNPGKAPKLLIYAVSTLHSGVPSRFSGSGSGTEFTLTISSLQPEDFATYYCQHLNTDSCTFGQGTKLEIK | 16.5 |
| Ab3 (C2.2) (antibody, V domains shown) VH: QVQLVQSGAEVKKPGSSVRVSCEASGDTFSRYAISWVRQAPGQGLEWMGRIIPMFGMANSAQKFQARVTISADKSTSTAYMEVSSLRSEDTAVYYCATDTFYPNDGVHRMEYWGQGALVIVSS VL: DIQMTQSPSSLSASVGDRVTITCRASQTISNYLNWYQQKPGKAPNLLIYGTSILQSGVPSRFSGSGSGTDFTLTISSLQPEDFATYYCQQSHSAPRTFGPGTKVDIK | 271 |
| Ab5 (10x-L8N-c25) (antibody, V domains shown) VH: DFQLVESGGGLVRPGGSLRLSCVASEITVSRNYMSWIRQAPGKGLEWVSIIYPGGTTYYADSVKGRFTISRDNSKNTMYLQLNSLRPEDTAIYYCVRPIVRGGGGMDVWGQGTTVTVSS VL: DIQMTQSPSSLSASVGDRVTITCQASQDINKYLNWYQQKPGKAPKLLIYDATNLEPGVPSRFSGSGSGTDFVFTITSLQPEDIATYYCQYYDDVPYTFGQGTQLEIK | 57.5 |

// query concentration required to effectively neutralize (pVNT) value for entry Ab2 (H12.2) (antibody, V domains shown) VH: EFQLVESGGRLVRPGGSLRLSCVASEIIVSRNYMSWIRQAPGKGLEWVSILYAGGTTYYADSVKGRFTISRDNSKNTLYLQLNSLRVEDTAIYYCVRPIVGGRGGMDVWGQGTTVTVSS VL: DIQMTQSPSSLSASVGDRVTITCQASQDINKYLNWYQQKPGKAPKLLIYDASNLEPGVPSRFSGSGSGTDFVFTITSLQPEDIATYYCHYYDDVPYTFGQGTQLEIK 16.6
